We begin with a simple list: items and their reported Binding to 1 nM KDR, %.
test target: T1, human vascular endothelial growth factor receptor-2 Fc chimera (KDR-Fc) (human, UniProt P35968 20-764)
T1 construct: range 1-764; also called human VEGFR-2; VEGF-R2-Fc; not shown: human IgG1 Fc
T1 sequence (P35968 20-764 limits assumed, change not shown, form in doubt): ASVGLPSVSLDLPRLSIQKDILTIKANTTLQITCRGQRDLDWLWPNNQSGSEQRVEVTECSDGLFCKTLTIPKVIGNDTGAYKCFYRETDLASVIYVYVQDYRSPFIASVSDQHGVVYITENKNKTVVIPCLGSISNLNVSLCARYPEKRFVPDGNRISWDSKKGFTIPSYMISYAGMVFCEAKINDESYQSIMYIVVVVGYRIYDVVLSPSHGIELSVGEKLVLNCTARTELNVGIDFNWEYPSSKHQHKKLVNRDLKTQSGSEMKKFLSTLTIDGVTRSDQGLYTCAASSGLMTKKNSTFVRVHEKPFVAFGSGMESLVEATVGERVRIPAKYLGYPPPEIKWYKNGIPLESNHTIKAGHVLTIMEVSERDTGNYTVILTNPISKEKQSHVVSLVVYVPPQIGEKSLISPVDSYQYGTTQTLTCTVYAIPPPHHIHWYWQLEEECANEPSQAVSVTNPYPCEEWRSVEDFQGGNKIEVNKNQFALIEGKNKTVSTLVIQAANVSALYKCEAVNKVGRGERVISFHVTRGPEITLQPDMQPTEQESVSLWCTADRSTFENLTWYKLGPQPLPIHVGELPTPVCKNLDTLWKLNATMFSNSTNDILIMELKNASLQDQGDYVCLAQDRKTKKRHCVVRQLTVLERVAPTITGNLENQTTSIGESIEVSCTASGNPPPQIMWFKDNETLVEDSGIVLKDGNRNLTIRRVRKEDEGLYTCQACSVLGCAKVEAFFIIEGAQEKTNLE
procedure details: radioactive equilibrium binding, 1 nM KDR-Fc
Numeric answer only, unit % assumed.

# count of solved cases: 4
binder	Binding to 1 nM KDR, % [%]
3′E5 PR4 (designed binder, Del 1-8) EVVAATPTSLLISWRHPHFPTRYYRITYGETGGNSPVQEFTVPLQPPTATISGLKPGVDYTITGYAVTVAWDGRELFTPISINYRT	23
2′Del A2 PR4 (designed binder, Del 1-8) EVVAATPTSLLISWRHPHFPTRYYRITYGETGGNSPVQEFTVPLQPPTATISGLKPGVDYTITGYAVTGGRNGHTLLTPISINYRT	17
K9 (designed binder, Del 1-8) EVVAATPTSLLISWRHPHFPTRYYRITYGETGGNSPVQEFTVPLQPPTATISGLKPGVDYTITGYAVTFGLYGKELLIPISINYRT	35
3G2 PR3 (designed binder, Del 1-8) EVVAATPTSLLISWRHPHFPTRYYRITYGETGGNSPVQEFTVPLQPPTATISGLKPGVDYTITGYAVTFGPSDHVLLTPISINYRT	20

The binder identified as 4′H7 PR4 (designed binder, Del 1-8) EVVAATPTSLLISWRHPHFPTRYYRITYGETGGNSPVQEFTVPLQPPTATISGLKPGVDYTITGYAVTLAHNDHELLTPISINYRT registered its Binding to 1 nM KDR, % at 29

Form: binder = 4′B8 PR4 (designed binder, Del 1-8) EVVAATPTSLLISWRHPHFPTRYYRITYGETGGNSPVQEFTVPLQPPTATISGLKPGVDYTITGYAVTVAQNDHKLFIPISINYRT ; Binding to 1 nM KDR, % = 20

Record summary for 1′DelD2 PR4 (designed binder, Del 1-8) EVVAATPTSLLISWRHPHFPTRYYRITYGETGGNSPVQEFTVPLQPPTATISGLKPGVDYTITGYAVTVAKNDHELLTPISINYRT : reported Binding to 1 nM KDR, % = 17

Lookup result for 2′E4-PR4 (designed binder, WT N-terminus) VSDVPRDLEVVAATPTSLLISWRHPHFPTRYYRITYGETGGNSPVQEFTVPLQPPTATISGLKPGVDYTITGYAVTVHWNGHELMTPISINYRT ; measured Binding to 1 nM KDR, %: 22

Given item 2′Del B4 PR4 (designed binder, Del 1-8) EVVAATPTSLLISWRHPHFPTRYYRITYGETGGNSPVQEFTVPLQPPTATISGLKPGVDYTITGYAVTSGHNGHEVMTPISINYRT , the value recorded as its Binding to 1 nM KDR, % is 31
